Catalogue of inhibition at 10 µM readings, one per entry.
Biological target: Abl WT (Homo sapiens (Human), UniProt P00519)
Assay: Reaction Biology Corp. kinase assay, Abl WT
Assay type: biochemical
Details: 10 μM; compounds tested by Reaction Biology Corp.; read-out: % inhibition of kinase activity, Abl WT (category)
Procedure: 4 compounds were tested for their capacity to inhibit various mutated kinases AbI (American company, Reaction Biology Corp.).

The following compounds have reported results that may help.
{"columns": ["molecule smiles", "inhibition at 10 µM"],
 "data": [
  ["COC(=O)c1cc2cc(NCc3cc(NC(=O)c4ccc(CN5CCN(C)CC5)cc4)ccc3C)cnc2[nH]1", "> 50%"],
  ["COC(=O)c1cc2cc(NC(=O)c3ccccc3OC)cnc2[nH]1", "10 to 50%"],
  ["COC(=O)c1cc2cc(NCc3ccccc3C(F)(F)F)cnc2[nH]1", "> 50%"]
]}

QUERY: Please give measured inhibition at 10 µM of the following entry: COC(=O)c1cc2cc(NCc3c(C)cccc3Cl)cnc2[nH]1
RESULT: > 50%

QUERY: Please give measured inhibition at 10 µM of the following entry: COC(=O)c1cc2cc(NCc3nccs3)cnc2[nH]1
RESULT: > 50%

====

target: Abl kinase (h) (Homo sapiens (Human), UniProt P00519); assay: Cerep kinase profiling, HTRF assay, Abl kinase; type: biochemical; settings: 10 μM; compounds tested by Cerep; read-out: % inhibition of kinase activity, Abl WT (category)
Catalogue of inhibition at 10 µM readings, one per entry.

The following compounds have reported results that may help.
{"columns": ["molecule smiles", "inhibition at 10 µM"],
 "data": [
  ["O=C(Nc1cnc2[nH]c(Cc3ccc[nH]3)cc2c1)c1ccccc1Br", "> 50%"],
  ["COC(=O)c1cc2cc(NC(=O)c3cccc(F)c3F)cnc2[nH]1", "10 to 50%"],
  ["COc1ccc(OC(=O)c2cc3cc(NC(=O)c4ccccc4)cnc3[nH]2)cc1", "10 to 50%"],
  ["COc1cccc(NCc2cc3cc(NC(=O)c4ccccc4Br)cnc3[nH]2)c1", "10 to 50%"],
  ["N#Cc1ccc(NCc2cc3cc(NC(=O)c4ccccc4Br)cnc3[nH]2)cc1", "10 to 50%"],
  ["Cc1nc(-c2cccc(C(=O)Nc3cnc4[nH]c(C(=O)NCCCN(C)C)cc4c3)c2)cs1", "< 10%"]
]}

QUERY: Please give measured inhibition at 10 µM of the following entry: COC(=O)c1cc2cc(NC(=O)c3ccccc3Oc3ccccc3)cnc2[nH]1
RESULT: < 10%

QUERY: Please give measured inhibition at 10 µM of the following entry: CN(C)CCCNC(=O)c1cc2cc(NC(=O)c3ccccc3Br)cnc2[nH]1
RESULT: > 50%

QUERY: Please give measured inhibition at 10 µM of the following entry: NC(=O)c1cc2cc(NC(=O)c3cccc(F)c3)cnc2[nH]1
RESULT: 10 to 50%

====

molecular target: Abl T315I (Homo sapiens (Human), UniProt P00519, T315I); assay: Reaction Biology Corp. kinase assay, mutated Abl T315I; format: biochemical; details: 10 μM; Reaction Biology Corp.; read-out: % inhibition of kinase activity, Abl T315I (category)
readout: inhibition at 10 µM

The following compounds have reported results that may help.
{"columns": ["compound", "readout", "reported measurement"],
 "data": [
  ["COC(=O)c1cc2cc(Nc3ccc(I)cc3)cnc2[nH]1 [ND0108]", "inhibition at 10 µM", "10 to 50%"],
  ["COC(=O)c1cc2cc(NCc3ccc4[nH]ccc4c3)cnc2[nH]1 [ND0096]", "inhibition at 10 µM", "> 50%"],
  ["COC(=O)c1cc2cc(NC(=O)c3cc(NC(=O)c4ccc(CN5CCC(N(C)C)C5)c(C(F)(F)F)c4)ccc3C)cnc2[nH]1 (centres unmarked) [ND0119]", "inhibition at 10 µM", "> 50%"],
  ["COC(=O)c1cc2cc(NCc3ccccc3Br)cnc2[nH]1 [ND0057]", "inhibition at 10 µM", "< 10%"],
  ["COC(=O)c1cc2cc(Nc3cccc(I)c3)cnc2[nH]1 [ND0103]", "inhibition at 10 µM", "< 10%"],
  ["COC(=O)c1cc2cc(NC(=O)c3ccc4[nH]ccc4c3)cnc2[nH]1 [ND0082]", "inhibition at 10 µM", "< 10%"]
]}

QUERY: Please give measured inhibition at 10 µM of the following entry: COC(=O)c1cc2cc(NCc3cc(NC(=O)c4ccc(CN5CCN(C)CC5)cc4)ccc3C)cnc2[nH]1 [ND0118]
RESULT: > 50%

QUERY: Please give measured inhibition at 10 µM of the following entry: COC(=O)c1cc2cc(NCc3cc[nH]n3)cnc2[nH]1 [ND0098]
RESULT: < 10%

QUERY: Please give measured inhibition at 10 µM of the following entry: COC(=O)c1cc2cc(NC(=O)c3ccccc3OC)cnc2[nH]1 [ND0073]
RESULT: < 10%

QUERY: Please give measured inhibition at 10 µM of the following entry: COC(=O)c1cc2cc(NC(=O)c3cc(NC(=O)c4ccc(CN5CCN(C)CC5)cc4)ccc3C)cnc2[nH]1 [ND0117]
RESULT: 10 to 50%

QUERY: Please give measured inhibition at 10 µM of the following entry: COC(=O)c1cc2cc(NCc3cccs3)cnc2[nH]1 [ND0093]
RESULT: 10 to 50%

QUERY: Please give measured inhibition at 10 µM of the following entry: COC(=O)c1cc2cc(NC(=O)c3cccs3)cnc2[nH]1 [ND0079]
RESULT: < 10%

QUERY: Please give measured inhibition at 10 µM of the following entry: COC(=O)c1cc2cc(NCc3ccccc3C)cnc2[nH]1 [ND0090]
RESULT: 10 to 50%

QUERY: Please give measured inhibition at 10 µM of the following entry: COC(=O)c1cc2cc(NC(=O)c3cccc(S(=O)(=O)NCc4ccco4)c3)cnc2[nH]1 [ND0086]
RESULT: < 10%

This collection of values is drawn from patent US8580815B2.
